Recorded DC50 for the following molecules
target-under-test: KRAS-G12D (Homo sapiens, UniProt P01116, G12D)
Construct: endogenous in cells; host or cells: A-427 (ATCC), AGS, AsPc-1, Panc 04.03
Sequence (P01116 1-188 isoform P01116-2 G12D): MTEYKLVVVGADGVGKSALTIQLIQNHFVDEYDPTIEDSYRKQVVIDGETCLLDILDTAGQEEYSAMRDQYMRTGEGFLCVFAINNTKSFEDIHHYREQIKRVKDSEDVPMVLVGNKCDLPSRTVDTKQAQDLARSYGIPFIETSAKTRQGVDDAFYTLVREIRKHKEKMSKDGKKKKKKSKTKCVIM
method-description: KRAS-G12D degradation assay (Western Blot), AsPc-1 cells
Format: cell-based
measurement-parameters: 24 h
recorded-metric: DC50 (nM)

| chemical-string | target-under-test | observed-measurement |
| --- | --- | --- |
| [2H]C([2H])(C1CCC2(CC1)CCN(C(=O)c1ccc(C)c(N3CCC(=O)NC3=O)c1)CC2)N1CCN(CC2(COc3nc(N4CC5CCC(C4)N5)c4ccc(-c5cc(O)cc6ccc(F)c(C#C)c56)c(F)c4n3)CC2)CC1 | KRAS-G12D (Homo sapiens, UniProt P01116, G12D) | 13.7 |
| [2H]C([2H])([2H])c1ccc(C(=O)N2CCC3(CCC(CN4CCN(C[C@@H](C)COc5nc(N6CC7CCC(C6)N7)c6cnc(-c7cc(O)cc8ccc(F)c(C#C)c78)c(F)c6n5)CC4)CC3)CC2)cc1N1CCC(=O)NC1=O | KRAS-G12D (Homo sapiens, UniProt P01116, G12D) | 0.64 |
| CCc1cccc2cc(O)cc(-c3ncc4c(N5CC6CCC(C5)N6)nc(OCC5(CN6CCN(CC7CCC8(CC7)CCN(C(=O)c7ccc(C)c(N9CCC(=O)NC9=O)c7)CC8)CC6)CC5)nc4c3F)c12 | KRAS-G12D (Homo sapiens, UniProt P01116, G12D) | 4.79 |
| C#Cc1c(F)ccc2cc(O)cc(-c3ccc4c(N5CC6CCC(C5)N6)nc(OC[C@H](C)CN5CCN(CC6CCC7(CC6)CCN(C(=O)c6ccc(C)c(N8CCC(=O)NC8=O)c6)CC7)CC5)nc4c3F)c12 | KRAS-G12D (Homo sapiens, UniProt P01116, G12D) | 8.72 |

---

Recorded DC50 for the following compounds
target-under-test: KRAS-G12D (Homo sapiens, UniProt P01116, G12D)
Construct: endogenous in cells; host or cells: A-427 (ATCC), AGS, AsPc-1, Panc 04.03
method-description: KRAS-G12D degradation assay (Western Blot), A-427 cells
Format: cell-based
measurement-parameters: A427 cells, 24 h; class symbols

| compound | DC50 |
| --- | --- |
| C#Cc1c(F)ccc2cc(O)cc(-c3ncc4c(N5CC6CCC(C5)N6)nc(OC[C@@H]5CCCN5CC5CCC6(CC5)CCN(C(=O)c5ccc(Cl)c(N7CCC(=O)NC7=O)c5)CC6)nc4c3F)c12 [Example 12] | 1000 to 10000 nM |
| CCc1c(F)ccc2cc(O)cc(-c3ncc4c(N5CC6CCC(C5)N6)nc(OCC5(CN6CCN(CC7CCC8(CC7)CCN(C(=O)c7ccc(OC)c(N9CCC(=O)NC9=O)c7)CC8)CC6)CC5)nc4c3F)c12 [Example 15] | ≤ 50 nM |
| C#Cc1c(F)ccc2cc(O)cc(-c3ncc4c(N5CC6CCC(C5)N6)nc(OCC5CCN(CCCCC6CCC7(CC6)CCN(C(=O)c6ccc(Cl)c(N8CCC(=O)NC8=O)c6)CC7)CC5)nc4c3F)c12 [Example 52] | 100 to 500 nM |
| C#Cc1c(F)ccc2cc(O)cc(-c3ncc4c(N5CC6CCC(C5)N6)nc(OC[C@@H]5CCCN5CCC5CCC6(CC5)CCN(C(=O)c5ccc(Cl)c(N7CCC(=O)NC7=O)c5)CC6)nc4c3F)c12 [Example 32] | 1000 to 10000 nM |
| C#Cc1c(F)ccc2cc(O)cc(-c3ncc4c(N5CC6CCC(C5)N6)nc(OCC5(CN6CCN(CCCC7CCC8(CC7)CCN(C(=O)c7ccc(Cl)c(N9CCC(=O)NC9=O)c7)CC8)CC6)CC5)nc4c3F)c12 [Example 7] | ≤ 50 nM |
